Test system: Severe acute respiratory syndrome coronavirus 2
Assay: Binding affinity to N-terminal 6-histidine tagged Severe acute respiratory syndrome coronavirus 2 nucleocapsid protein overexpressed in Escherichia coli BL21 (DE3) assessed as response unit by SPR assay
MEASURED_PARAMETER: Activity
Include the unit right after the number.

Per the records, this compound ( COc1ccc2c(c1)CN(C)c1c(C)cccc1-2 ) has Activity equal to 34.9 RU

So, CCc1cccc2c1ncc1ccc(OC)cc12 ? Its Activity was 30.7 RU

Recorded result, CCn1c(=O)c2cc(OC)c(OC)cc2c2cccc(C(=O)O)c21 , Activity: 33.5 RU

response.value for CCN1Cc2cc(OC)c(OC)cc2-c2cccc(NCC(F)(F)F)c21 (field: Activity) = 125 RU

get_value(item= CCn1c(=O)c2cc(OC)c(OC)cc2c2cccc(NC(C)=O)c21 , readout=Activity) returns 17.7 RU

Entry Cc1cccc2c1N(C)Cc1cc(O)ccc1-2 — recorded Activity = 35 RU
